# Experimental system: CRAC channels (Homo sapiens (Human))
# Sequence (Q96D31 whole entry): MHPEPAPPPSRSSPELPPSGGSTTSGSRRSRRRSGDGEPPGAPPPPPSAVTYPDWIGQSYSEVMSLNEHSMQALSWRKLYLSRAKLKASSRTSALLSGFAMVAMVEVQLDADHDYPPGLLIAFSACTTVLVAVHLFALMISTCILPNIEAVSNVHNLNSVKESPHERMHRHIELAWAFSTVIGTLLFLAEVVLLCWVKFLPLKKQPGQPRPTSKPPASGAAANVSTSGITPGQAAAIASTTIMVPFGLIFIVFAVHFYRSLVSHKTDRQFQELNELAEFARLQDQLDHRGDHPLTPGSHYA
# Protocol summary: In-vitro CRAC channel inhibition assay in Jurkat cells (thapsigargin-induced calcium influx)
# Type: cell-based
Counter-ions that a name gives are not always drawn.
Observed property: inhibition at 1 µM (%)
State just the number; it will be interpreted in %.

O=C(Cc1ccccn1)Nc1ccc(-n2nc(C(F)(F)F)cc2C2CC2)nc1 [Example 117, hydrochloride]	0
O=C(CN1CCOCC1)Nc1ccc(-n2nc(C3CC3)cc2C2CC2)cc1	43
O=C(Nc1ccc(-n2nc(C3CC3)cc2C2CC2)cc1)c1ccncc1 [Example 15, hydrochloride]	94
Cc1noc(C)c1C(=O)Nc1ccc(-n2nc(C3CC3)cc2C2CC2)nc1	0
O=C(Nc1ccc(-n2nc(C(F)(F)F)cc2C2CC2)cc1)c1ccncc1F	100
O=C(Nc1c(F)cccc1F)c1ccc(-n2nc(C(F)(F)F)cc2C2CC2)nc1	100

Q: Which measured inhibition at 1 µM value corresponds to O=C(Nc1ccc(-n2nc(C3CC3)cc2C2CC2)cc1)c1cccnc1 [Example 14, hydrochloride] ?
Ans: 25.9

Q: Param item: O=C(Cc1ccccn1)Nc1ccc(-n2nc(C(F)(F)F)c(Cl)c2C2CC2)c(F)c1 [Example 96, hydrochloride]
Ans: 18

Q: Likewise for O=C(Nc1ccc(-n2nc(C(F)(F)F)cc2C2CC2)c(F)c1)c1c(Cl)cncc1Cl ?
Ans: 95.8

Q: Same for Cc1ncncc1NC(=O)c1ccc(-n2nc(C(F)(F)F)cc2C2CC2)c(F)c1
Ans: 18.6

Q: Now consider O=C(Nc1ccc(-n2nc(C(F)(F)F)cc2C2CC2)c(F)c1)C1(c2ccccc2)CCC1 and answer again.
Ans: 0

Q: Would you kindly repeat that for Cc1oncc1C(=O)Nc1ccc(-n2nc(C(F)(F)F)cc2C2CC2)c(F)c1 ?
Ans: 100

Q: Would you kindly repeat that for O=C(Nc1ccc(-n2nc(C(F)(F)F)cc2C2CC2)nc1)c1c(Cl)cncc1Cl ?
Ans: 51.3

Q: Try O=C(Nc1ccc(-n2nc(C(F)(F)F)cc2C2CC2)c(F)c1)c1ccncc1F next.
Ans: 100

Q: Also Cc1ncoc1C(=O)Nc1ccc(-n2nc(C(F)(F)F)cc2C2CC2)c(F)c1 ?
Ans: 85.2

Q: Same question for Cc1oncc1C(=O)Nc1ccc(-n2nc(C(F)(F)F)cc2C2CC2)cc1 please.
Ans: 100

Q: Query O=C(Nc1ccc(-n2nc(C3CC3)cc2C2CC2)c(F)c1)c1cccnc1 [Example 34, hydrochloride] next
Ans: 21.5

---

# key: entry, value: pIC50
# Tested on: IL-5
# Protocol summary: Inhibition of cytokine release in PBMC: IL-5
# Type: cell-based
# Condition summary: Homo sapiens, Phytohemagglutinin, 48 h, ELISA, read-out: IC 50 PBMC IL-5
Scale: negative log10 of molar concentration, which is what pIC50 denotes.

O=C(Nc1ccc(-n2nc(C(F)(F)F)cc2C2CC2)nc1)c1c(F)cccc1F	7.69
Cc1ncsc1C(=O)Nc1ccc(-n2nc(C(F)(F)F)cc2C2CC2)cc1	6.84
Cc1ncncc1C(=O)Nc1ccc(-n2nc(C(F)(F)F)cc2C2CC2)c(F)c1	6.86

Q: Lab note: need pIC50 with IL-5 for entry Cc1nnsc1C(=O)Nc1ccc(-n2nc(C3CC3)cc2C2CC2)c(F)c1 , please look it up.
Ans: 6.70

---

# Experimental system: UniProt:Q96D31
# Protocol summary: In-vitro CRAC channel inhibition assay in Jurkat cells (thapsigargin-induced calcium influx)
# Format: cell-based
Overview of reported inhibition at 1 µM across a group of compounds:
Dear colleague, please return just the value in %, with no unit written.

O=C(Nc1ccc(-n2nc(C(F)(F)F)cc2C2CC2)c(F)c1)c1c(F)cccc1F [Example 88]	100

Q: Returns the measured inhibition at 1 µM for the input compound. Input: O=C(Cc1ccccc1)Nc1ccc(-n2nc(C3CC3)cc2C2CC2)cc1 [Example 19]
Ans: 73.5

Q: Query O=C(Nc1ccc(-n2nc(C3CC3)cc2C2CC2)cc1)c1ccncc1F [Example 16] next
Ans: 92.8

---

# Test system: IL-5
# Protocol summary: Inhibition of cytokine release in Human Whole Blood: IL-5
# Format: cell-based
# Condition summary: Phytohemagglutinin, 48 h, ELISA, read-out: IC 50 Human Whole Blood IL-5
Recorded IC50 by entry

Examples from the recorded data:
Cc1nnsc1C(=O)Nc1ccc(-n2nc(C3CC3)cc2C2CC2)c(F)c1	46.3 nM
Cc1ncsc1C(=O)Nc1ccc(-n2nc(C(F)(F)F)cc2C2CC2)cc1	61.8 nM
O=C(Nc1c(F)cccc1F)c1ccc(-n2nc(C(F)(F)F)cc2C2CC2)c(F)c1	56.4 nM

Q: Item O=C(Nc1ccc(-n2nc(C(F)(F)F)cc2C2CC2)nc1)c1c(F)cccc1F with IL-5 - IC50?
Ans: 19.8 nM

Q: Same again, this time with Cc1ncncc1C(=O)Nc1ccc(-n2nc(C(F)(F)F)cc2C2CC2)c(F)c1
Ans: 173 nM

---

# Experimental system: CRAC channels (Homo sapiens (Human))
# Protocol summary: In-vitro CRAC channel inhibition assay in Jurkat cells (thapsigargin-induced calcium influx)
# Format: cell-based
Where a name gives a salt, the structure may show the parent alone.
Kind request: treat 80% as inclusive, so inhibition at 1 µM at 80% or higher is Y, anything lower is N.

Cc1ncsc1C(=O)Nc1ccc(-n2nc(C(F)(F)F)cc2C2CC2)c(F)c1	Y
Cc1ncncc1NC(=O)Nc1ccc(-n2nc(C(F)(F)F)cc2C2CC2)c(F)c1	Y
O=C(Cc1ccccn1)Nc1ccc(-n2nc(C3CC3)cc2C2CC2)cc1 [Example 22, hydrochloride]	N
Cc1ccccc1C(=O)Nc1ccc(-n2nc(C(F)(F)F)cc2C2CC2)nc1	Y
O=C(Nc1cccc(F)c1F)c1ccc(-n2nc(C(F)(F)F)cc2C2CC2)nc1	N

Q: Reported inhibition at 1 µM at or above 80%? Cc1ncncc1NC(=O)Nc1ccc(-n2nc(C(F)(F)F)cc2C2CC2)cc1
Ans: N

Q: Queued: Cc1ccccc1C(=O)Nc1ccc(-n2nc(C3CC3)cc2C2CC2)c(F)c1
Ans: N

---

# Tested on: IL-2
# Protocol summary: Inhibition of cytokine release in Human Whole Blood: IL-2
# Type: cell-based
# Condition summary: Con A + PMA, 20 h, ELISA, read-out: IC 50 Human Whole Blood IL-2
pIC50: −log10 of the molar value.
Entry flag: YES if pIC50 reaches 7; NO if it does not.

As a guide, the following entries are already answered.
Cc1nnsc1C(=O)Nc1ccc(-n2nc(C3CC3)cc2C2CC2)cc1	NO
Cc1nnsc1C(=O)Nc1ccc(-n2nc(C(F)(F)F)cc2C2CC2)c(F)c1	YES

Q: For this molecule, is measured pIC50 7 or higher? Cc1ncsc1NC(=O)c1ccc(-n2nc(C(F)(F)F)cc2C2CC2)cc1
Ans: YES

---

# Test system: NCI-H460 cancer cell line
# Protocol summary: In-vitro cell proliferation assay in NCI-H460 cancer cell line (MTT)
# Assay type: cell-based
# Condition summary: Homo sapiens, 10 μM, 48 h
Where a name gives a salt, the structure may show the parent alone.
Observed property: inhibition at 10 µM

Consider the following illustrative entries.
O=C(Nc1ccc(-n2nc(C(F)(F)F)cc2C2CC2)c(F)c1)c1c(Cl)cncc1Cl	100%
O=C(Nc1ccc(-n2nc(C(F)(F)F)cc2C2CC2)c(F)c1)c1ccncc1 [Example 90, hydrochloride]	90.7%
Cc1nnsc1C(=O)Nc1ccc(-n2nc(C3CC3)cc2C2CC2)cc1	31%
O=C(Nc1ccc(-n2nc(C3CC3)cc2C2CC2)cc1)C1(c2ccccc2)CC1	41%
O=C(Nc1ccc(-n2nc(C3CC3)cc2C2CC2)cc1)c1cccc(F)c1F	14%

Q: What value of inhibition at 10 µM has been recorded for this entry: O=C(Nc1ccc(-n2nc(C3CC3)cc2C2CC2)cc1)c1ccccc1
Ans: 35%

Q: Entry Cc1nnsc1C(=O)Nc1ccc(-n2nc(C(F)(F)F)cc2C2CC2)cc1 please
Ans: 34%

Q: Also, O=C(Nc1ccc(-n2nc(C(F)(F)F)cc2C2CC2)c(F)c1)c1ccncc1F please.
Ans: 92.7%

Q: One more compound: Cc1ncsc1C(=O)Nc1ccc(-n2nc(C(F)(F)F)cc2C2CC2)cc1
Ans: 22%

---

# System: IL-2
# Protocol summary: Inhibition of cytokine release in Human Whole Blood: IL-2
# Type: cell-based
# Condition summary: Con A + PMA, 20 h, ELISA, read-out: IC 50 Human Whole Blood IL-2
# Experimental: 2. In Vitro Inhibition of Cytokine Release in Jurkat Cells, Human Whole Blood and Peripheral Blood Mononuclear Cells (PBMC). Inhibition of cytokine IL-2, IL-4, IL-5 and TNF α was determined as described below. • a. […] Data were analysed using GraphPad Prism. IC50 values for each compound were determined based on the percent inhibition due to the test compound compared to the control. • b. […] Data were analysed using GraphPad Prism. […] Data were analysed using GraphPad Prism. […]
We begin with a simple list: items and their reported pIC50.
# pIC50 is unitless: minus log10 of the molar concentration; print number only

Sample answers from the record:
O=C(Nc1ccc(-n2nc(C(F)(F)F)cc2C2CC2)c(F)c1)c1c(F)cccc1F	6.64
Cc1ncsc1C(=O)Nc1ccc(-n2nc(C(F)(F)F)cc2C2CC2)cc1	6.56
O=C(Nc1ccc(-n2nc(C(F)(F)F)cc2C2CC2)nc1)c1ccccc1F	7.08
Cc1ccccc1C(=O)Nc1ccc(-n2nc(C(F)(F)F)cc2C2CC2)nc1	7.02
O=C(Nc1ccc(-n2nc(C(F)(F)F)cc2C2CC2)cc1)c1c(Cl)cncc1Cl	6.70

Q: Any idea what its pIC50 is? The compound is Cc1ncncc1C(=O)Nc1ccc(-n2nc(C(F)(F)F)cc2C2CC2)c(F)c1
Ans: 7.19

Q: Can you handle Cc1oncc1C(=O)Nc1ccc(-n2nc(C(F)(F)F)cc2C2CC2)cc1 next?
Ans: 7.11

Q: Same for Cc1nnsc1C(=O)Nc1ccc(-n2nc(C3CC3)cc2C2CC2)c(F)c1
Ans: 6.22
